- Assay type: in vivo, human
- TEST_PARAMETERS: human, plasma, oral, Median tmax and tssmax, Parts B and D, savolitinib 600 mg/300 mg q.d. + osimertinib 80 mg q.d.

MOLECULAR_STRING	Tmax
C[C@@H](c1ccc2nccn2c1)n1nnc2ncc(-c3cnn(C)c3)nc21	2 to 4 h

----------
- Format: in vivo, human
- TEST_PARAMETERS: human, plasma, oral, Mean terminal elimination half-life (t1/2λz), Parts B and D, single and multiple dosing

COMPOUND	half-life
C[C@@H](c1ccc2nccn2c1)n1nnc2ncc(-c3cnn(C)c3)nc21 [savolitinib]	2 to 4 h
